Target: Gal(b1-4)GlcNAc(b1-3)Gal(b1-3)GalNAc
Assay Details: glycan array binding signal (z-score within array); higher = stronger binding
Recorded Conditions: glycan notation: IUPAC condensed, linker removed
The entries come from a sample that favours the strongest signals as a whole.
Collected glycan array binding signal (z-score) values appear next to each entry.

INSERT INTO assay_data (binder, value_kind, recorded_measurement) VALUES
  ('AMA (Arum maculatun) (protein) MAKLLLLLLLPAIVGLAVPRSAAAVGSNYMLSGETLNTDGRLTNGELTLIMQVDCNLVLYHGGWQSNTANNGRDCKLTLTDFGELVIKSGTGSTVWSSGSKQSMKGNYAAVVHPEGRLVIYGPSVFKINPSGAGLNGLPLRNIPLTNNMLFSGQVLYGDGTLSARNHKLVMQGDCNMVLYGGKYGWQSNTHGNGKYCFAMLTHKGELVIRDDDFKSVWSSKSSSKQGDYVFILQDDSLAIIYGPAVFSTGSKKMISMVTN', 'glycan array binding signal (z-score)', -0.219),
  ('GS13455A-bfa-343-25-343 (Bacteroides fragilis) (protein) KDEIQIVDQDTSWQMDNKYIEEDIREQLGIDPFTDLVYLGYYGNPYTQLEAINDLVNTTLVGKNELSFKVKVTKPYKEDIKVNLMKEDKLVTDFPEMAEGIPLFPSENCTFEGGVLKAGELETTVKLTLKDVEKLNNLSGYVMAIKLTMEGSHEHLAIARTRSSYFVKLNLSIRLDNIDSSNKKIEGKGFNKEISFKSDIRPDKLGSLNDGNFTANNWYTSNANNYLTIILPEKQSLKGFRLDTNTSPSGSYMLKSCRVMVETPDGNWVNHGVFDRKSMDGIAYISFKKPVECTKVRFENMMAFNGRFSVDVNEVTAFR', 'glycan array binding signal (z-score)', 0.107),
  ('PhypaEULS3 (Physcomitrella patens) (protein) MLPVRLHCKADPNFNLAAVPGQGPVMVPFSPNDDFQVWYKDVTMSTRVKDETGSSAFSLINKATGQALRHAPEDLAQCLLADYDSNALDQTVLWTMSEDMGQGYCCIRLASQITRNLDVFRGDKKSGGVKEGSPVITFAWKKQDNQIWKMITAILEQKLISEEDLNSAVDHHHHHH', 'glycan array binding signal (z-score)', 2.27);

Here is the next item to consider.
Would you kindly share the measured glycan array binding signal (z-score) for EEA (Euonymus europaeus) (protein) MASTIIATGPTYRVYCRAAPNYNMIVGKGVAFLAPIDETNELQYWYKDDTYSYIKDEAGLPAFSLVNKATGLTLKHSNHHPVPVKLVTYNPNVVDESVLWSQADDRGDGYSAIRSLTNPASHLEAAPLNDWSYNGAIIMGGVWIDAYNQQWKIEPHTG ?
-0.23
